Values compiled from paper PMC10397247.

Target: T1, 4H1446-bN
T1 chain: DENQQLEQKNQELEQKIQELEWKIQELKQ
Assay: two-hybrid library CCNG1;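 also: natural log of median RNA to DNA barcode read ratio; higher means stronger binding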
reportedProperty: interaction score

DENQQLEQKIQELKQENQELKWEIQELEQ [4H1369-bN]: -2.34
DENQQLEQENQELEQKIQELKWEIQELEQ [4H1193-bN]: -0.688

a: DENQQLEQKNQELEQKIQELEWKIQELKQ [4H1446-bN]
b: DENQQLEQKIQELEQKIQELKWKNQELKQ [4H1328-bN]
c: DENQQLEQENQELKQKIQELKWEIQELEQ [4H1257-bN]
Task: Order each entry by recorded interaction score, climbing from the minimum. The reply should contain the labels ordered as requested.
Output: c, a, b
